- Experimental system: glutathione-S-transferase (GST) tagged LXRalpha LBD (ligand binding domain) (Homo sapiens, UniProt Q13133)
- Construct: purchased Invitrogen pv4655
- Sequence (Q13133 209-447 limits assumed): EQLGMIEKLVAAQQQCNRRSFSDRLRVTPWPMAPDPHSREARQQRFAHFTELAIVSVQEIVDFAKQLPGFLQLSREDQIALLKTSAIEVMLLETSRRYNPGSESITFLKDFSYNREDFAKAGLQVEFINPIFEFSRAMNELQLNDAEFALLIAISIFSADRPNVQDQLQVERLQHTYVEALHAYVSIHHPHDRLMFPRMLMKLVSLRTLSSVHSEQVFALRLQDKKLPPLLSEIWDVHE
- Procedure text: LanthaScreen TR-FRET Liver X Receptor Coactivator Assay, co-activator recruitment to LXRalpha LBD
- Type: biochemical
- Condition parameters: efficacy at max dose, in relation to reference dual agonist T0901317; read-out: LXR alpha Activity @ max dose (%)
Readout: Emax (%)
Quick note: give the figure in %, leave out the unit.

> print(dat)
                                   molecule  assay.value
1  Cc1cc(N2CCC(CC3(C)CCN(C(=O)[C@](O)(c4cccc(Cl)c4)C(F)(F)F)CC3)CC2)ccc1C(=O)N(C)C [Example 2-76]            4

For record CC(C)c1cccc([C@@](O)(C(=O)N2CCC(C)(CC3CCN(c4ccc(C(=O)N(C)C)c(Cl)c4)CC3)CC2)C(F)(F)F)c1 [Example 2-56] the listed Emax is 2

Emax for CN(C)C(=O)c1ccc(N2CCC(CC3CCN(C(=O)[C@](O)(c4ccccc4)C(F)(F)F)C3)CC2)cc1Cl (stereo partly drawn) [Example 2-71] is 9

----------
- Experimental system: glutathione-S-transferase (GST) tagged LXRbeta LBD (ligand binding domain) (Homo sapiens, UniProt P55055)
- Construct: purchased Invitrogen pv4658.pps
- Sequence (P55055 222-460 limits assumed): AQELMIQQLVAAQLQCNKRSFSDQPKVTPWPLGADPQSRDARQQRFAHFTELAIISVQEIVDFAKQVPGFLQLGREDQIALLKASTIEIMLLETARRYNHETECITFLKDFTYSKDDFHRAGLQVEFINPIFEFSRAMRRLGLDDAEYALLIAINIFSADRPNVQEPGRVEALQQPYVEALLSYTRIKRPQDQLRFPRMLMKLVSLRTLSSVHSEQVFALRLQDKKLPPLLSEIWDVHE
- Procedure text: LanthaScreen TR-FRET Liver X Receptor Coactivator Assay, co-activator recruitment to LXRbeta LBD
- Format: biochemical
- Condition parameters: efficacy at max dose, in relation to reference dual agonist T0901317; read-out: LXR beta Activity @ max dose (%)
Readout: Emax (%)
Could you give me the number in %? Just the number is fine.

The examples below pair each entry with its known result.
> print(dat)
                                   molecule  uom  assay.value
1  CN(C)C(=O)c1ccc(N2CCC(CC3CCN(C(=O)[C@](O)(c4cccc(OC(F)(F)F)c4)C(F)(F)F)CC3)CC2)cc1    %           55
2  CN(C)C(=O)c1ccc(N2CCC(CC3CCN(C(=O)[C@](O)(c4csc5ccccc45)C(F)(F)F)CC3)CC2)cc1Cl (stereo in doubt)    %           71
3  CN(C)C(=O)c1ccc(N2CCC(CC3CN(C(=O)[C@](O)(c4cc(Cl)cc(Cl)c4)C(F)(F)F)C3)CC2)cc1Cl    %           77
4  COc1cccc([C@@](O)(C(=O)N2CCC(CC3CCN(c4ccc(C(=O)N(C)C)c(C5CC5)n4)CC3)CC2)C(F)(F)F)c1    %           73

Reported Emax ( `COc1cccc([C@@](O)(C(=O)N2CCC(C)(CC3CCN(c4ccc(C(=O)N(C)C)c(Cl)n4)CC3)CC2)C(F)(F)F)c1` ) = 35

Data point: `CN(C)C(=O)c1ccc(N2CCC(CC3CCN(C(=O)[C@](O)(c4cc(Cl)cc(Cl)c4)C(F)F)CC3)CC2)cc1Cl` ; Emax = 51

Input CN(C)C(=O)c1ccc(N2CCC(CC3CCN(C(=O)C(O)(c4cccnc4)C(F)(F)F)CC3)CC2)cc1Cl (centres unmarked) . Output Emax: 99

----------
- Experimental system: glutathione-S-transferase (GST) tagged LXRalpha LBD (ligand binding domain) (Homo sapiens, UniProt Q13133)
- Construct: purchased Invitrogen pv4655
- Sequence (Q13133 209-447 limits assumed): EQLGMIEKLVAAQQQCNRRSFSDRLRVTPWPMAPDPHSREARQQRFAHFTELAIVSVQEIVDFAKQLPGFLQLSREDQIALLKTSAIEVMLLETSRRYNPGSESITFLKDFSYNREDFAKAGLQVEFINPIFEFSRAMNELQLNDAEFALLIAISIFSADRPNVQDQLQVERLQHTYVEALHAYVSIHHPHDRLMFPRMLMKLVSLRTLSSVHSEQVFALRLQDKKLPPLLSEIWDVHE
- Procedure text: LanthaScreen TR-FRET Liver X Receptor Coactivator Assay, co-activator recruitment to LXRalpha LBD
- Assay type: biochemical
- Condition parameters: efficacy at max dose, in relation to reference dual agonist T0901317; read-out: LXR alpha Activity @ max dose (%)
Readout: Emax (%)
The reply should be a number in %, with the unit left off.

> print(dat)
                                   compound  uom  assay.value
1  Cc1ccsc1C(O)(C(=O)N1CCC(CC2CCN(c3ccc(C(=O)N(C)C)c(Cl)c3)CC2)CC1)C(F)(F)F (stereo not shown) [Example 2-38]    %           15
2  CNC(=O)c1ccc(N2CCC(CC3CCN(C(=O)[C@](O)(c4ccccc4)C(F)(F)C(F)(F)F)CC3)CC2)nc1Cl [Example 7-131]    %           74
3  CN(C)C(=O)c1ccc(N2CCC(CC3CCN(C(=O)C(O)(c4cc(F)cc(F)c4)C(F)(F)F)CC3)CC2)nc1Cl (stereo not shown) [Example 7-82]    %           53
4  CN(C)C(=O)c1ccc(N2CCC(OC3CCN(C(=O)[C@](O)(c4ccccc4)C(F)(F)C(F)(F)F)CC3)CC2)cc1Cl [Example 2-22]    %           51
5  COc1cccc([C@@](O)(C(=O)N2CC(CC3CCN(c4ccc(C(=O)N(C)C)c(Cl)c4)CC3)C2)C(F)(F)F)c1 [Example 2-59]    %            3

// recorded Emax for CN(C)C(=O)c1ccc(N2CCC(CC3CCN(C(=O)[C@@](O)(c4cccc(C(F)(F)F)c4)C(F)(F)F)CC3)CC2)cc1Cl [Example 2-33] : 5

Measured Emax, CN(C)C(=O)c1ccc(N2CCC(CC3CCN(C(=O)C(F)(F)c4cccc(Cl)c4)CC3)CC2)nc1Cl [Example 7-81] : 19

----------
# key: entry, value: Emax
- Experimental system: glutathione-S-transferase (GST) tagged LXRbeta LBD (ligand binding domain) (Homo sapiens, UniProt P55055)
- Construct: purchased Invitrogen pv4658.pps
- Procedure text: LanthaScreen TR-FRET Liver X Receptor Coactivator Assay, co-activator recruitment to LXRbeta LBD
- Format: biochemical
- Condition parameters: efficacy at max dose, in relation to reference dual agonist T0901317; read-out: LXR beta Activity @ max dose (%)
API: value field is a number in %; no unit string.

> print(dat)
                                 mol.smiles  readout  assay.value
1  CN(C)C(=O)c1ccc(N2CCC(CC3CCN(C(=O)[C@](O)(c4cc(Cl)cc(Cl)c4)C(F)(F)F)CC3)CC2)cc1Cl     Emax           59

Record `COc1cccc([C@@](O)(C(=O)N2CCC(CC3CCN(c4cnc(C(=O)N(C)C)c(C)c4)CC3)CC2)C(F)(F)F)c1` . Reported Emax: 43

Reported Emax ( `Cc1nc(N2CCC(CC3CCN(C(=O)[C@](O)(c4ccccc4)C(F)(F)F)CC3)CC2)ccc1C(=O)N(C)C` ) = 80

----------
Emax listing for selected molecules.
- Experimental system: glutathione-S-transferase (GST) tagged LXRalpha LBD (ligand binding domain) (Homo sapiens, UniProt Q13133)
- Construct: purchased Invitrogen pv4655
- Procedure text: LanthaScreen TR-FRET Liver X Receptor Coactivator Assay, co-activator recruitment to LXRalpha LBD
- Assay type: biochemical
- Condition parameters: efficacy at max dose, in relation to reference dual agonist T0901317; read-out: LXR alpha Activity @ max dose (%)
Answer in %, number only, no unit symbol.

Field Emax (entry `CN(C)C(=O)c1ccc(N2CCC(CC3CCN(C(=O)[C@](O)(c4cccc(C(F)(F)F)c4)C(F)(F)F)CC3)CC2)cc1` ) reads 20

The reported value for `O=C(c1ccc(N2CCC(CC3CCN(C(=O)[C@](O)(c4ccccc4)C(F)(F)F)CC3)CC2)cc1Cl)N1[C@H]2CC[C@@H]1CC2` in terms of Emax is 25

The value of Emax measured for the molecule `CNC(=O)c1ccc(N2CCC(CC3CCN(C(=O)[C@](O)(c4cccc(C)c4)C(F)(F)F)CC3)CC2)nc1Cl` turned out to be 34

Recorded Emax (molecule CCc1cccc(C(O)(C(=O)N2CCC(CC3CCN(c4ccc(C(=O)N(C)C)c(Cl)c4)CC3)CC2)C(F)(F)F)c1 (centres unmarked) ): 2

So for `CCc1cccc([C@@](O)(C(=O)N2CCC(CC3CCN(c4ccc(C(=O)N(C)C)cc4)CC3)CC2)C(F)(F)F)c1` , the logged Emax turned out to be 12

// Emax value for `NC(=O)c1ccc(N2CCC(CC3CCN(C(=O)[C@](O)(c4ccccc4)C(F)(F)F)CC3)CC2)cc1Cl` : 52

For reference, reported Emax for `CC(C)Oc1cccc([C@@](O)(C(=O)N2CCC(C)(CC3CCN(c4ccc(C(=O)N(C)C)c(Cl)n4)CC3)CC2)C(F)(F)F)c1` stands at 16
